# Tested on: Avena fatua (AVEFA)
# measurement.protocol: Post-emergence herbicidal activity, Avena fatua
# Type: in vivo
# condition: 250 g/ha, evaluated after 13 days
The molecules listed here are annotated with their Control of AVEFA after post-emergence application (score 0-5).
The answer should be a number; do not append a unit.

Cc1cnc(CNC(=O)Nc2ccc(-c3cncc(F)c3)nc2C(F)(F)F)cn1 3
O=C(NCc1cccnc1)Nc1ccc(-c2cncc(F)c2)nc1C(F)(F)F 2

Request: Output reported Control of AVEFA after post-emergence application (score 0-5) of the molecule CC(C)CNC(=O)Nc1ccc(-c2cncc(F)c2)nc1C(F)(F)F on Avena fatua (AVEFA).
Result: 3

Request: Output reported Control of AVEFA after post-emergence application (score 0-5) of the molecule O=C(NCC1CC1)Nc1ccc(-c2cncc(F)c2)nc1C(F)(F)F on Avena fatua (AVEFA).
Result: 3

Request: Output reported Control of AVEFA after post-emergence application (score 0-5) of the molecule O=C(Nc1ccc(-c2cncc(F)c2)nc1C(F)(F)F)OCCC(F)(F)F on Avena fatua (AVEFA).
Result: 3

Request: Output reported Control of AVEFA after post-emergence application (score 0-5) of the molecule O=C(NCC1CCCCC1)Nc1ccc(-c2cncc(F)c2)nc1C(F)(F)F on Avena fatua (AVEFA).
Result: 2

Request: Output reported Control of AVEFA after post-emergence application (score 0-5) of the molecule O=C(Nc1cc(Cl)cc(Cl)c1)Nc1ccc(-c2cncc(F)c2)nc1C(F)(F)F on Avena fatua (AVEFA).
Result: 1

Request: Output reported Control of AVEFA after post-emergence application (score 0-5) of the molecule CSCCCNC(=O)Nc1ccc(-c2cncc(F)c2)nc1C(F)(F)F on Avena fatua (AVEFA).
Result: 3

Request: Output reported Control of AVEFA after post-emergence application (score 0-5) of the molecule O=C(Nc1ccc(-c2cncc(F)c2)nc1C(F)(F)F)OC1CCOCC1 on Avena fatua (AVEFA).
Result: 4

Request: Output reported Control of AVEFA after post-emergence application (score 0-5) of the molecule CCCCN(C)C(=O)Nc1ccc(-c2cncc(F)c2)nc1C(F)(F)F on Avena fatua (AVEFA).
Result: 3

Request: Output reported Control of AVEFA after post-emergence application (score 0-5) of the molecule CC(C)(C)CNC(=O)Nc1ccc(-c2cncc(F)c2)nc1C(F)(F)F on Avena fatua (AVEFA).
Result: 3

Request: Output reported Control of AVEFA after post-emergence application (score 0-5) of the molecule CC(C)(C)COC(=O)Nc1ccc(-c2cncc(F)c2)nc1C(F)(F)F on Avena fatua (AVEFA).
Result: 2

Request: Output reported Control of AVEFA after post-emergence application (score 0-5) of the molecule CCCCNC(=O)Nc1ccc(-c2cncc(F)c2)nc1C(F)(F)F on Avena fatua (AVEFA).
Result: 3

---

# Tested on: Avena fatua (AVEFA)
# measurement.protocol: Pre-emergence herbicidal activity, Avena fatua
# Format: in vivo
# condition: 250 g/ha, evaluated after 13 days
The compounds listed here are annotated with their Control of AVEFA after pre-emergence application (score 0-5).

Request: Determine from records and report Control of AVEFA after pre-emergence application (score 0-5) for CCCCNC(=O)Nc1ccc(-c2cncc(F)c2)nc1C(F)(F)F
Result: 1

Request: Determine from records and report Control of AVEFA after pre-emergence application (score 0-5) for O=C(Nc1cc(Cl)cc(Cl)c1)Nc1ccc(-c2cncc(F)c2)nc1C(F)(F)F
Result: 0

Request: Determine from records and report Control of AVEFA after pre-emergence application (score 0-5) for O=C(Nc1ccc(-c2cncc(F)c2)nc1C(F)(F)F)OCCC(F)(F)F
Result: 1

---

# System: Echinochloa crus-galli (ECHCG)
# measurement.protocol: Pre-emergence herbicidal activity, Echinochloa crus-galli
# Type: in vivo
# condition: 250 g/ha, evaluated after 13 days
The compounds listed here are annotated with their Control of ECHCG after pre-emergence application (score 0-5).
The answer should be a number; do not append a unit.

Request: Output reported Control of ECHCG after pre-emergence application (score 0-5) of the compound CC(C)CNC(=O)Nc1ccc(-c2cncc(F)c2)nc1C(F)(F)F [Compound B90] on Echinochloa crus-galli (ECHCG).
Result: 4

Request: Output reported Control of ECHCG after pre-emergence application (score 0-5) of the compound O=C(NCC1CC1)Nc1ccc(-c2cncc(F)c2)nc1C(F)(F)F [Compound B104] on Echinochloa crus-galli (ECHCG).
Result: 2

Request: Output reported Control of ECHCG after pre-emergence application (score 0-5) of the compound O=C(NCC1CCCCC1)Nc1ccc(-c2cncc(F)c2)nc1C(F)(F)F [Compound B80] on Echinochloa crus-galli (ECHCG).
Result: 1

Request: Output reported Control of ECHCG after pre-emergence application (score 0-5) of the compound O=C(Nc1ccc(-c2cncc(F)c2)nc1C(F)(F)F)OCCC(F)(F)F [Compound B96] on Echinochloa crus-galli (ECHCG).
Result: 4

Request: Output reported Control of ECHCG after pre-emergence application (score 0-5) of the compound CCCCNC(=O)Nc1ccc(-c2cncc(F)c2)nc1C(F)(F)F [Compound B106] on Echinochloa crus-galli (ECHCG).
Result: 1

Request: Output reported Control of ECHCG after pre-emergence application (score 0-5) of the compound O=C(Nc1cc(Cl)cc(Cl)c1)Nc1ccc(-c2cncc(F)c2)nc1C(F)(F)F [Compound B88] on Echinochloa crus-galli (ECHCG).
Result: 1

Request: Output reported Control of ECHCG after pre-emergence application (score 0-5) of the compound O=C(Nc1ccc(-c2cncc(F)c2)nc1C(F)(F)F)OC1CCOCC1 [Compound B93] on Echinochloa crus-galli (ECHCG).
Result: 4

Request: Output reported Control of ECHCG after pre-emergence application (score 0-5) of the compound Cc1cnc(CNC(=O)Nc2ccc(-c3cncc(F)c3)nc2C(F)(F)F)cn1 [Compound B92] on Echinochloa crus-galli (ECHCG).
Result: 1

---

# Tested on: Lolium perenne (LOLPE)
# measurement.protocol: Pre-emergence herbicidal activity, Lolium perenne
# Assay type: in vivo
# condition: 1000 g/ha, evaluated after 13 days
measurement.kind: Control of LOLPE after pre-emergence application (score 0-5)
The answer should be a number; do not append a unit.

molecule	reported.measurement
O=C(Nc1ccc(-c2cncc(F)c2)nc1C(F)(F)F)OCc1ccc(Cl)cc1 [Compound B105]	1
CSCCCOC(=O)Nc1ccc(-c2cncc(F)c2)nc1C(F)(F)F [Compound B83]	2

Request: Output reported Control of LOLPE after pre-emergence application (score 0-5) of the molecule CN1COCN(c2ccc(-c3cncc(F)c3)nc2C(F)(F)F)C1=O [Compound B121] on Lolium perenne (LOLPE).
Result: 0

Request: Output reported Control of LOLPE after pre-emergence application (score 0-5) of the molecule CNC(=O)Nc1ccc(-c2cncc(F)c2)nc1C(F)(F)F [Compound B49] on Lolium perenne (LOLPE).
Result: 0

---

The molecules listed here are annotated with their Control of AVEFA after post-emergence application (score 0-5).
# System: Avena fatua (AVEFA)
# measurement.protocol: Post-emergence herbicidal activity, Avena fatua
# Format: in vivo
# condition: 1000 g/ha, evaluated after 13 days
The answer should be a number; do not append a unit.

Observe how each entry below is paired with its result.
molecule	reported.measurement
COCCOC(=O)Nc1ccc(-c2cncc(F)c2)nc1C(F)(F)F [Compound B59]	3
O=C(Nc1ccc(-c2cncc(F)c2)nc1C(F)(F)F)OCc1ccccc1 [Compound B53]	4
COc1nc(-c2cncc(F)c2)ccc1N(C(=O)OC(C)(C)C)C(=O)OC(C)(C)C [Compound B109]	1

Let's switch to this molecule now.
Request: Output reported Control of AVEFA after post-emergence application (score 0-5) of the molecule CC(C)(C)OC(=O)Nc1ccc(-c2cncc(C(F)F)c2)nc1C(F)(F)F [Compound B5] on Avena fatua (AVEFA).
Result: 1

---

The compounds listed here are annotated with their Control of AVEFA after post-emergence application (score 0-5).
# Tested on: Avena fatua (AVEFA)
# measurement.protocol: Post-emergence herbicidal activity, Avena fatua
# Type: in vivo
# condition: 1000 g/ha, evaluated after 13 days
# Protocol: Seeds of a variety of test species were sown in standard soil in pots: Triticum aestivium (TRZAW), Avena fatua (AVEFA), Alopecurus myosuroides (ALOMY), Echinochloa crus-galli (ECHCG), Lolium perenne (LOLPE), Zea Mays (ZEAMX), Abutilon theophrasti (ABUTH), Amaranthus retroflexus (AMARE) and Setaria faberi (SETFA). […] After 13 days, the test was evaluated (5=total damage to plant; 0=no damage to plant).
The answer should be a number; do not append a unit.

Observe how each entry below is paired with its result.
N#CC1(NC(=O)Nc2ccc(-c3cncc(F)c3)nc2C(F)(F)F)CCC1 3
O=C(Nc1ccc(-c2cncc(F)c2)nc1C(F)(F)F)N1CCOCC1 4
O=C(Nc1ccc(-c2cncc(F)c2)nc1C(F)(F)F)N1CCS(=O)(=O)C1 3
O=C(Nc1ccc(-c2cncc(F)c2)nc1C(F)(F)F)OCc1ccc(Cl)cc1 3

Request: Output reported Control of AVEFA after post-emergence application (score 0-5) of the compound CCCCOC(=O)Nc1ccc(-c2cncc(F)c2)nc1C(F)(F)F on Avena fatua (AVEFA).
Result: 2
